These data points were gathered from PubChem BioAssay AID2685.

# method-notes: qHTS Assay for Lipid Storage Modulators in Drosophila S3 Cells
# applied-conditions: BODIPY lipid droplet fluorescence, 18-24 h, cells fed with added oleic acid; series mostly up to 46.1 µM
The campaign covered roughly 320,000 compounds. About 2,100 (0.66%) were called active. Not shown: some 53% with an inconclusive outcome. Calls come from the whole dose curve; as a rule, active = well fitted inhibition curve with a large enough effect in the signal ratio, with a control signal flat (not every such curve was filed as active); inconclusive = small, poorly fitted or top-dose-only effect, or effect the other way, or a change in a side signal; inactive = flat fitted curve, though single readings scatter; the % refers to the signal ratio. The list comes from a sample in which actives are over-represented; it also holds close analogues and randomly drawn compounds.
Classes used: yes = active, no = inactive

>>> answer_label("Cc1nc(C(C)NC(=O)CCc2nnc(-c3ccsc3)o2)cs1 (stereo not drawn)")
"no"
>>> answer_label("COc1ccc2[nH]c(=O)c(CN(Cc3cccnc3)Cc3nnnn3CC3CCCO3)cc2c1 (stereo not drawn)")
"no"
>>> answer_label("O=C(CNC(=O)c1ccc(Br)o1)Nc1ncccc1O")
"no"
>>> answer_label("Nc1ccc(C(=O)N/N=C/c2c[nH]c3ccccc23)cc1")
"no"
>>> answer_label("CCC(CC)C(=O)NCCc1ccc(F)cc1")
"yes"
>>> answer_label("COc1cccc2cc(C(=O)NCc3ccccc3Br)c(=O)oc12")
"no"
>>> answer_label("Cc1ccc(SCC(=O)OCC(=O)NC(C)c2ccc(Br)cc2)cc1 (stereo not drawn)")
"no"
>>> answer_label("Cn1cccc1CC(=O)N/N=C/c1ccc(Cl)cc1")
"no"

====

# method-notes: qHTS Assay for Lipid Storage Modulators in Drosophila S3 Cells;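 for cell number change: cells counted by Cell Tracker Red CMTPX staining in the red channel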
# applied-conditions: BODIPY lipid droplet fluorescence, 18-24 h, cells fed with added oleic acid; measured here: cell count max response
About 2,100 (0.66%) of roughly 320,000 compounds were called active. About 53% were inconclusive and are not listed. The entries come from a sample that favours actives as a whole.
In this section we review reported cell number change values for a set of molecules.
measured-attribute: cell number change

>>> endpoint_value("O=S(=O)(c1cccc(C(F)(F)F)c1)N1CCCC1c1cccnc1 (configuration not stated)")
"4.77%"
>>> endpoint_value("CSC1=NNC(c2ccc(C(C)(C)C)cc2)=NN1")
"21%"
>>> endpoint_value("O=C(Nc1ccc(C(=O)Oc2ccccc2)c(O)c1)c1ccccc1")
"-6.44%"
>>> endpoint_value("COCC1CCN(Cc2nc(-c3ccc(OC)cc3)no2)CC1")
"9.88%"
>>> endpoint_value("CC(=O)c1ccc(NC(=O)/C(=C\\c2cccs2)NC(=O)c2ccco2)cc1")
"17%"
>>> endpoint_value("O=C(O)CC1S/C(=N/N=C/c2ccc(Br)cc2)N(c2ccccc2)C1=O (configuration not stated)")
"-1.06%"
>>> endpoint_value("O=C(NNc1c2ccccc2nc2ccccc12)c1ccc(O)cc1")
"-16.9%"
>>> endpoint_value("O=c1cc2c(n[nH]1)CCCC2")
"-2.03%"
>>> endpoint_value("CC(C)Oc1cccc(C(=O)N2CCCC2)c1")
"0.879%"
>>> endpoint_value("CCCN(CCC)S(=O)(=O)c1nc2nc(C)cc(C)n2n1")
"8.75%"
>>> endpoint_value("CC(=O)NS(=O)(=O)c1ccc(NC(=O)c2cc(-c3ccc(C)cc3)nc3ccccc23)cc1")
"13.2%"
>>> endpoint_value("Cc1nc(C)c(C(=O)OCC(=O)Nc2cccc(C)c2C)s1")
"-21.3%"
>>> endpoint_value("Cc1ccccc1COC(=O)c1nn(-c2ccccc2)nc1N")
"3.63%"
>>> endpoint_value("CC(C)Oc1cccc(C(=O)O)c1")
"0.0714%"
>>> endpoint_value("Cc1ccn2c(C(=O)NNC(=O)Nc3ccc(Cl)cc3)c(C)nc2c1")
"-7.08%"
>>> endpoint_value("O=C(NCCCc1ccccc1)C1CC(=O)N(c2ccc3c(c2)OCCO3)C1 (configuration not stated)")
"12.6%"
>>> endpoint_value("CCc1ccc(C(=O)c2cnc3ccc(OC)cc3c2N2CCN(CC)CC2)cc1")
"-13.9%"
>>> endpoint_value("O=C1C=C(NCCN2CCOCC2)C(=O)c2cnccc21")
"-9.98%"
>>> endpoint_value("CCn1c(O)c(C(C#N)=C2N=c3ccccc3=N2)c2ccccc21")
"24.7%"
>>> endpoint_value("C#CCNC(=O)C1=C[C@@H](c2coc3ccccc3c2=O)C[C@@H](OCCCCO)O1")
"6.85%"
>>> endpoint_value("COc1ccc(CCNC(=O)C2CCN(C(=O)c3ccc(Br)cc3)CC2)cc1")
"-9.49%"
>>> endpoint_value("CSc1ccc(CN(C)C(=O)CSCC(=O)Nc2cc(C)on2)cc1")
"13.3%"

====

# method-notes: qHTS Assay for Lipid Storage Modulators in Drosophila S3 Cells;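 for cell number change: cells counted by Cell Tracker Red CMTPX staining in the red channel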
# applied-conditions: BODIPY lipid droplet fluorescence, 18-24 h, cells fed with added oleic acid; measured here: cell count max response
Among all 320,000 compounds or so, about 2,100 (0.66%) were called active. About 53% were inconclusive and are not listed. For the sample, actives were picked, then their nearest neighbours and some compounds at random.
measured-attribute: cell number change (%)

>>> endpoint_value("Cc1ccc(S(=O)(=O)N(CC(=O)NCCSc2ccccn2)c2cc(C)cc(C)c2)cc1")
-8.96
>>> endpoint_value("O=C(COC(=O)C1CC2C=CC1C2)NCc1ccccc1Cl (configuration not stated)")
9.83
>>> endpoint_value("O=C(NCc1ccc2[nH]c3c(c2c1)CCCC3)c1ccc(S(=O)(=O)N2CCCCC2)cc1")
-10.5
>>> endpoint_value("Nc1cccc(C#Cc2ccc3c(=O)c4ccccc4oc3c2)c1")
-4.2
>>> endpoint_value("Cn1c2ccccc2c(=O)c2ccc(-c3ccc4c(c3)OCO4)cc21")
-21
>>> endpoint_value("COc1ccc(NS(=O)(=O)c2cccc(C(=O)NCC3(N4CCOCC4)CCCCC3)c2)cc1")
1.17
>>> endpoint_value("CCCN1C(=O)C2C(C(=O)Nc3cccc(OC)c3)C3C=CC2(O3)C1C(=O)NC1CCCCC1 (configuration not stated)")
1.47
>>> endpoint_value("CN(Cc1ccccc1)S(=O)(=O)c1ccc(OCC(=O)Nc2cccc([N+](=O)[O-])c2)cc1")
18.8
>>> endpoint_value("Cc1cccc(NC(=O)CCN2CCCCC2)c1")
8.73
>>> endpoint_value("O=C(Cc1ccc(S(=O)(=O)N2CCOCC2)s1)Nc1ccc2c(c1)CCC2")
-23.1
>>> endpoint_value("CC(C)N(C(=O)Cn1c(=O)oc2ccccc21)c1ccccc1")
12.3
>>> endpoint_value("COc1cccc2oc3cc(C#Cc4ccccn4)ccc3c(=O)c12")
-23

====

# method-notes: qHTS Assay for Lipid Storage Modulators in Drosophila S3 Cells
# applied-conditions: BODIPY lipid droplet fluorescence, 18-24 h, cells fed with added oleic acid; series mostly up to 46.1 µM
The whole screen tested about 320,000 compounds, of which about 2,100 (0.66%) were called active. Not shown: some 53% with an inconclusive outcome. Calls come from the whole dose curve; as a rule, active = well fitted inhibition curve with a large enough effect in the signal ratio, with a control signal flat (not every such curve was filed as active); inconclusive = small, poorly fitted or top-dose-only effect, or effect the other way, or a change in a side signal; inactive = flat fitted curve, though single readings scatter; the % refers to the signal ratio. The entries come from a sample that favours actives as a whole.
Possible outcomes: YES for active, NO for inactive

>>> answer_label("N#C/C(=C\\c1ccccc1Cl)C(=O)Nc1ccccn1")
"YES"
>>> answer_label("Cc1cccn2c(=O)c3cc(C(=O)NCCc4ccccc4)sc3nc12")
"NO"
>>> answer_label("CCCSc1nc(C)cc(=O)[nH]1")
"NO"
>>> answer_label("NC(=O)C1CCCN(Cc2ccc3ccccc3c2)C1 (centres undefined)")
"NO"
>>> answer_label("CN(C)CCCN(C(=O)COc1ccccc1)c1nc2ccc(F)cc2s1")
"NO"
>>> answer_label("O=C(c1ccncc1)N1CCN(C(=O)c2cccc3ccccc23)CC1")
"NO"
>>> answer_label("CCOC(=O)C(C)(C)N(Cc1cccc(C)c1)S(=O)(=O)c1cccc([N+](=O)[O-])c1")
"NO"
>>> answer_label("CCC(=O)Nc1ccccc1C(=O)N1CCCC1")
"NO"
>>> answer_label("O=C(O)c1ccccc1-n1cnnn1")
"NO"
>>> answer_label("CN(C)S(=O)(=O)Nc1cccc(Br)c1")
"NO"
>>> answer_label("COc1ccccc1N(CC(=O)Nc1ccccc1C(=O)N1CCOCC1)S(C)(=O)=O")
"NO"
>>> answer_label("Cc1cc(Cl)ccc1NC(=O)CN1CCN(C(=O)c2ccco2)CC1")
"YES"
>>> answer_label("O=C(NN(C(=O)C1CC1)c1nc2ccccc2s1)C1CC1")
"NO"
>>> answer_label("CC(C)(CNC(=O)c1cc([N+](=O)[O-])ccc1N1CCC(Cc2ccccc2)CC1)N1CCOCC1")
"YES"
>>> answer_label("Cc1c(CNC(=O)C2CC2)c(-n2cccc2)n(Cc2ccccc2)c1C")
"NO"
>>> answer_label("CCOC(=O)C(C)(C)N(Cc1ccc(Cl)cc1)S(=O)(=O)c1ccc(Cl)c([N+](=O)[O-])c1")
"NO"
>>> answer_label("O=C(c1ccccn1)N(CC1CCCO1)C1(C(=O)NC2CCCCC2)CCCCC1 (centres undefined)")
"NO"
>>> answer_label("O=C(C1CCCN(Cc2ccc(Cl)cc2)C1)N1CCCCC1 (centres undefined)")
"NO"
>>> answer_label("COc1ccc(C(=O)NNC(=O)COc2ccc(Cl)cc2)c(OC)c1")
"NO"
>>> answer_label("Cc1ccc(OCCn2cc(Br)c(=O)[nH]c2=O)cc1")
"NO"
>>> answer_label("CCOc1ccccc1N(CC(=O)Nc1ccccc1C(=O)N1CCCC1)S(C)(=O)=O")
"NO"
>>> answer_label("O=C(NCc1csc(-c2cccs2)n1)Nc1ccc(C(F)(F)F)cc1")
"NO"
>>> answer_label("COC(=O)C(C)n1nc(C)n(-c2ccc(C)cc2)c1=O (centres undefined)")
"NO"
>>> answer_label("O=C(COc1ccccc1)NCC1CCCO1 (centres undefined)")
"NO"
>>> answer_label("CCOC(=O)C(C)(C)NS(=O)(=O)c1ccc(Cl)c([N+](=O)[O-])c1")
"YES"
>>> answer_label("Cc1ccnc2nc(C(=O)OCC(=O)N(CC(C)C)C3CCS(=O)(=O)C3)nn12 (centres undefined)")
"NO"
>>> answer_label("NC(=O)C1CCCN(Cc2ccc(Cl)cc2)C1 (centres undefined)")
"YES"
>>> answer_label("CC(C)(C)c1ccc(/C=C(\\C#N)C(=O)Nc2ccccn2)cc1")
"NO"
>>> answer_label("CCOc1ccc(-c2ccc(NS(=O)(=O)c3ccc([N+](=O)[O-])cc3)cc2)nn1")
"NO"
>>> answer_label("O=C(CCSc1ccccc1)Nc1ccccc1C(=O)N1CCCC1")
"NO"
>>> answer_label("CCc1cc(C(=O)OC)c(NC(=O)CN2CCN(C(=O)c3ccco3)CC2)s1")
"NO"
>>> answer_label("CC(=O)/C(=N/Nc1ccc(Br)cc1)Sc1cccc2cccnc12")
"NO"
>>> answer_label("O=C1CC(c2ccccc2)CN1S(=O)(=O)c1ccccc1 (centres undefined)")
"YES"
>>> answer_label("CCOC(=O)N1CCN(C(=O)CCCCCn2c(=S)[nH]c3ccsc3c2=O)CC1")
"NO"
>>> answer_label("Cc1cc(=O)[nH]c(SCC(=O)N2CCCCC2)n1")
"NO"
>>> answer_label("O=C(O)c1ccc(N/N=C2/CCCc3ccccc32)cc1")
"NO"
>>> answer_label("CSc1nc(C)c(Cl)c(C)c1C#N")
"NO"
>>> answer_label("CN(C)S(=O)(=O)Nc1ccc(Br)cc1F")
"YES"
>>> answer_label("O=C(CCCn1c(SCc2cccc(F)c2)nc2ccccc2c1=O)NCC1CCCO1 (centres undefined)")
"NO"
